Biological target: UniProt O14842
Sequence (O14842 whole entry): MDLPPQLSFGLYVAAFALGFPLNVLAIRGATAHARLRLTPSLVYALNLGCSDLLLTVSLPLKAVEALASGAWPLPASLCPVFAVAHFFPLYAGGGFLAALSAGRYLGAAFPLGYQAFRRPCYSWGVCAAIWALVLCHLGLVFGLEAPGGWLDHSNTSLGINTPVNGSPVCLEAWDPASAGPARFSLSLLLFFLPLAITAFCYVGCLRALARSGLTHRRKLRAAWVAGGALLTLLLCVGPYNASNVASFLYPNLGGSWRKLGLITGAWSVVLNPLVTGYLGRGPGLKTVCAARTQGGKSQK
Experiment: Agonist activity at human FFA1 receptor expressed in human 1321N1 cells assessed as calcium mobilization by fluorescence spectrophotometry
pEC50: −log10 of the molar value.
Measured Metric: pEC50

Use the examples below as a reference point.
The value of pEC50 recorded for `Cc1c(C#Cc2ccc(CCC(=O)O)cc2)cc(Cl)nc1Cl` when tested on UniProt O14842 reads 7.36

The reported pEC50 value, UniProt O14842, for `O=C(O)CCc1ccc(C#Cc2ccnc(Oc3ccccc3)c2)cc1` reads 6.32

# `Cc1cnc(Cl)nc1C#Cc1ccc(CCC(=O)O)cc1` with UniProt O14842: pEC50 is 5.37

Result for `Cc1cnc(F)cc1C#Cc1ccc(CCC(=O)O)cc1` , tested on UniProt O14842, pEC50: 6.75

Log: UniProt O14842, compound `COc1nccc(C#Cc2ccc(CCC(=O)O)cc2)n1` , pEC50 = 5.02

[I] O=C(O)CCc1ccc(C#Cc2ccnc(-c3ccccc3)c2)cc1
[II] Cc1cnc(F)c(C#Cc2ccc(CCC(=O)O)cc2)c1
Between the entries labeled I and II , whose measured pEC50 is lower? Selection: enter the item's label.
II
